Hi there, I'd appreciate the recorded ED50 for every entry that follows.
test system: Staphylococcus aureus; assay: In vivo efficacy of compounds administered subcutaneously in mouse intraperitoneal infections; conditions: sc, 168 h; mouse i.p. Staphylococcus aureus infection; subcutaneous; dosed at infection and 4 h post-infection; 7 days; read-out: ED50 (50 percent effective dose)
Counter-ions that a name gives are not always drawn.
Answer with a number only, understood to be in mg/kg.

# input Quick one: ED50 for CC(=O)c1ccc(N2CC(CN)OC2=O)cc1 (single isomer, unassigned) [Example 170, hydrochloride] ?
# output 25.3

# input Requested read-out: ED50. Entry: CC(=O)NCC1CN(c2ccc(SCCO)cc2)C(=O)O1 (single isomer, unassigned)
# output 10.8

# input // lookup ED50 for CS(=O)(=O)c1ccc(N2CC(CNC(N)=O)OC2=O)cc1 (stereo not drawn)
# output 70.9

# input Data request, read-out ED50, for COC(=O)c1ccc(N2CC(CNC(C)=O)OC2=O)cc1 (single isomer, unassigned)
# output 37.5

# input Reported ED50, molecule NS(=O)(=O)c1ccc(N2CC(CNC(=O)C(Cl)Cl)OC2=O)cc1 (single isomer, unassigned) : ____
# output 14.4

# input I'd like to know its ED50. The molecule in question is CCc1ccc(N2CC(CNC(C)=O)OC2=O)cc1 (stereo not drawn) [Example 82]
# output 2

# input Would you mind telling me what ED50 value was observed for CS(=O)(=O)c1ccc(N2CC(CNC(=O)C(N)c3ccccc3)OC2=O)cc1 (stereo not drawn) ?
# output 67.1

# input What does the record list as ED50 for CS(=O)(=O)c1ccc(N2CC(CNC(=O)c3ccccc3)OC2=O)cc1 (stereo not drawn) ?
# output 49.6

# input Which measured ED50 value corresponds to CCOC(=O)NCC1CN(c2ccc(SC)cc2)C(=O)O1 (stereo not drawn) ?
# output 8.6

# input What ED50 value was documented for this molecule, C=Cc1ccc(N2CC(CNC(C)=O)OC2=O)cc1 (stereo not drawn) ?
# output 4.8

# input Which measured ED50 value corresponds to CC(=O)NCC1CN(c2ccc(CCCO)cc2)C(=O)O1 (stereo not drawn) ?
# output 18.6

# input Dear colleague, I am looking for the recorded ED50 of the following molecule: CC(=O)c1ccc(N2CC(CNC(N)=O)OC2=O)cc1 (stereo not drawn)
# output 2.8

# input Given COC(=O)NCC1CN(c2ccc(S(=O)(=O)N=[N+]=[N-])cc2)C(=O)O1 (stereo not drawn) , state its recorded ED50.
# output 7.2

# input State the recorded ED50 for this entry: CC(=O)NCC1CN(c2ccccc2[N+](=O)[O-])C(=O)O1 (single isomer, unassigned)
# output 21.5

---

tested on: Staphylococcus epidermidis; test: In vitro broth dilution minimal inhibitory concentration (standard microdilution method); assay type: cell-based; details: 24 h, Mueller-Hinton broth, 24-hour, read-out: Microdilution Broth MIC
Mark condition met only when MIC stays strictly below 4 µg/mL. Values equal to the cut-off are condition not met.

# input In the record for CC(=O)NCC1CN(c2ccc(C(=O)C3CCCCC3)cc2)C(=O)O1 (centres unmarked) , is MIC less than 4 µg/mL?
# output condition not met

# input Quick check: MIC of CCOC(OCC)C(=O)NCC1CN(c2ccc(SC)cc2)C(=O)O1 (centres unmarked) under 4 µg/mL?
# output condition not met

# input Problem: For the molecule CC(=O)NCC1CN(c2ccc(C(=O)COC(C)=O)cc2)C(=O)O1 (single isomer, unassigned) , is MIC under 4 µg/mL?
# output condition met

# input Does the reported MIC of COC(OC)C(=O)NCC1CN(c2ccc(SC)cc2)C(=O)O1 (centres unmarked) stay below 4 µg/mL?
# output condition not met

# input Does the reported MIC of C=CC(=O)NCC1CN(c2ccc([S+](C)[O-])cc2)C(=O)O1 (centres unmarked) stay below 4 µg/mL?
# output condition not met

# input Confirm or reject: MIC of CC(=O)NCC1CN(c2ccc(C(C)=O)c(C)c2)C(=O)O1 (centres unmarked) lies strictly below 4 µg/mL
# output condition met

# input Threshold test, MIC < 4 µg/mL: CC(=O)NCC1CN(c2ccc(F)cc2)C(=O)O1 (centres unmarked)
# output condition not met

# input MIC under 4 µg/mL? Item: CSCC(=O)c1ccc(N2CC(CNC(C)=O)OC2=O)cc1 (single isomer, unassigned)
# output condition met

# input MIC under 4 µg/mL? Item: CC(=O)N(CC1CN(c2ccc(S(C)(=O)=O)cc2)C(=O)O1)C1CCCCC1 (racemic)
# output condition not met

# input MIC under 4 µg/mL? Item: CON=C(C)c1ccc(N2CC(CNC(C)=O)OC2=O)cc1 (single isomer, unassigned)
# output condition not met

# input Given CC(=O)NCC1CN(c2ccc(SC(C)=O)cc2)C(=O)O1 (single isomer, unassigned) , is recorded MIC strictly lower than 4 µg/mL?
# output condition not met

# input MIC strictly < 4 µg/mL for this molecule? C#Cc1ccc(N2CC(CNC(C)=O)OC2=O)cc1 (single isomer, unassigned)
# output condition not met

# input Strictly below 4 µg/mL: is that where MIC of CC(=O)NCC1CN(c2ccccc2[N+](=O)[O-])C(=O)O1 (single isomer, unassigned) sits?
# output condition not met

---

tested on: Staphylococcus epidermidis; assay: In vitro broth dilution minimal inhibitory concentration (standard microdilution method); assay type: cell-based; settings: 24 h, Mueller-Hinton broth, 24-hour, read-out: Microdilution Broth MIC
reportedMetric: MIC (µg/mL)
Response body: numeric value in µg/mL, unit text excluded.

# input Write down the reported MIC of COC(=O)NCC1CN(c2ccc(C(C)C)cc2)C(=O)O1 (centres unmarked) [Example 39] , test system: Staphylococcus epidermidis.
# output 12.5

# input Please tell me: MIC of CS(=O)(=O)c1ccc(N2CC(CN=[N+]=[N-])OC2=O)cc1 (single isomer, unassigned) [Example 2] , system Staphylococcus epidermidis?
# output 6.3

# input Give recorded MIC with Staphylococcus epidermidis for the following compound: CS(=O)(=O)c1ccc(N2CC(CNC(=O)C3CC3)OC2=O)cc1 (centres unmarked) [Example 72]
# output 25

# input Test system Staphylococcus epidermidis; read-out MIC; what value for CC(=O)NCC1CN(c2ccc(Br)cc2)C(=O)O1 (centres unmarked) [Example 86] ?
# output 6.25

# input Hello, I am looking for reported MIC with Staphylococcus epidermidis for CS(=O)(=O)c1ccc(N2CC(CNC(=O)c3ccccc3)OC2=O)cc1 (centres unmarked) [Example 34] . Could you help?
# output 25

---

system: Staphylococcus aureus; test: In vivo efficacy of compounds administered subcutaneously in mouse intraperitoneal infections; settings: sc, 168 h; mouse i.p. Staphylococcus aureus infection; subcutaneous; dosed at infection and 4 h post-infection; 7 days; read-out: ED50 (50 percent effective dose)
reportedMetric: log10(ED50) (log10 of the value in mg/kg)
Base-10 log of ED50, unit mg/kg.

# input Look up log10(ED50): CC(=O)c1ccc(N2CC(CNC(=O)CN=[N+]=[N-])OC2=O)cc1 (stereo not drawn)
# output 0.91

# input Could you tell me which log10(ED50) is on file for C=C(C)c1ccc(N2CC(CNC(C)=O)OC2=O)cc1 (stereo not drawn) ?
# output 0.98

# input Field request: log10(ED50) | item: CC(=O)c1ccc(N2CC(CNC(=O)C(F)(F)F)OC2=O)cc1 (stereo not drawn)
# output 1.50

# input Query: log10(ED50); subject: CC(C)c1ccc(N2CC(CN=[N+]=[N-])OC2=O)cc1 (stereo not drawn)
# output 1.53

# input Name the recorded log10(ED50) for CSCc1ccc(N2CC(CNC(C)=O)OC2=O)cc1 (single isomer, unassigned) .
# output 0.51

# input Record request: log10(ED50) value, item CS(=O)(=O)c1ccc(N2CC(CNC(=O)CCCl)OC2=O)cc1 (stereo not drawn)
# output 1.27

---

Tested on: Escherichia coli
Assay: In vivo efficacy of compounds administered subcutaneously in mouse intraperitoneal infections
Conditions: sc, 168 h; mouse i.p. Escherichia coli infection; subcutaneous; dosed at infection and 4 h post-infection; 7 days; read-out: ED50 (50 percent effective dose)
Method: Determinations of in vivo efficacy are performed by inoculating mice intraperitoneally with cultures of the infecting organism diluted to produce 90-100% mortality in control animals within twenty-four hours. The diluents used were trypticase soy broth for E. coli and 5% aqueous hog gastric mucin for Staphylococcus aureus infections. […]
Rule: ED50 below 70 mg/kg gives label 1, anything at or above gives label 0.

# input Dear reviewer, please state whether NS(=O)(=O)c1ccc(N2CC(CNC(=O)C(Cl)Cl)OC2=O)cc1 (single isomer, unassigned) [Example 112] has ED50 strictly beneath 70 mg/kg.
# output label 1

# input Lab log: compare recorded ED50 with 70 mg/kg; is it strictly lower for CNS(=O)(=O)c1ccc(N2CC(CNC(C)=O)OC2=O)cc1 (centres unmarked) [Example 46] ?
# output label 0

# input Criterion: ED50 strictly below 70 mg/kg. Is it met by C#Cc1ccc(N2CC(CNC(C)=O)OC2=O)cc1 (single isomer, unassigned) [Example 182] ?
# output label 0

# input Hi there! Is ED50 for CS(=O)(=O)c1ccc(N2CC(CNC(=O)CCl)OC2=O)cc1 (centres unmarked) [Example 67] below 70 mg/kg, do you know?
# output label 0

# input Identify whether the molecule CC(=O)NCC1CN(c2ccc(C(C)=NNC(C)=O)cc2)C(=O)O1 (single isomer, unassigned) [Example 132] records ED50 below 70 mg/kg.
# output label 0

# input Regarding CC(=O)NCC1CN(c2ccc(C(=O)C[S+](C)[O-])cc2)C(=O)O1 (single isomer, unassigned) [Example 165, dihydrate] , kindly confirm whether its ED50 is beneath 70 mg/kg.
# output label 0

# input In the record for CS(=O)(=O)c1ccc(N2CC(CNC(=O)CN=[N+]=[N-])OC2=O)cc1 (centres unmarked) [Example 158] , is ED50 less than 70 mg/kg?
# output label 1
